Target: Cytochrome P450 11B1, mitochondrial (Rattus norvegicus)
Sequence (P15393 whole entry): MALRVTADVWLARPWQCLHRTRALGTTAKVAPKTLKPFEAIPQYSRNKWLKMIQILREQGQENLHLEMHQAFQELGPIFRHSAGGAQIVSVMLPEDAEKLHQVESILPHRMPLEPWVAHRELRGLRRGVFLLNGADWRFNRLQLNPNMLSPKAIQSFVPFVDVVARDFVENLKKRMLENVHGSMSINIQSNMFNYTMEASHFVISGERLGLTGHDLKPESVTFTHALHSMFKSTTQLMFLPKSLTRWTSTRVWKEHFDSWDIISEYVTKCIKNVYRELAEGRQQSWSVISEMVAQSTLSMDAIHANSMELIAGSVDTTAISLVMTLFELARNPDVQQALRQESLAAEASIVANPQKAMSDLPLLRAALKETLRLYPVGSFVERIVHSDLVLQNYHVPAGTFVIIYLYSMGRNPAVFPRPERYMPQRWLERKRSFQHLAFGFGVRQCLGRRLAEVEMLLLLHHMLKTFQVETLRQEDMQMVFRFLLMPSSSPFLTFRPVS
REPORTED PROPERTY: pIC50
To interpret pIC50, take it as minus log10 of a concentration measured in moles per litre.

Return the recorded pIC50 value; entry: `NC(=O)c1ccc(OCCn2ccnc2)cc1`
5.00

Give me measured pIC50, please, for this molecule: `CC(C)c1[nH]c2ccccc2c1Cn1ccnc1`
5.70

From: ChEMBL document CHEMBL1122814
